System: K4 kissing-loop RNA reporter;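 note: bound reporter read as fluorescence of individual clusters on recovered sequencing chips by microscopy, with normalized cluster intensities fitted with a binding model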
test.protocol: apparent KD of K4 kissing-loop reporter; higher = weaker reporter binding
condition.label: Eterna round: R107; input ligand: tryptophan 2.4 mM
apparent KD of K4 kissing-loop reporter below 200 nM gives condition not met; apparent KD of K4 kissing-loop reporter at or above it gives condition met.

>  <biosequence>
CCUAUCUCAUACGAUACCAGUCAAUUAAAACGAGUGAUGUUCGAAAAUUUGCCAUAUAAUGACCCUUGGCAGCGUAUGGGAUAGG [Ex Theophylline B K4 7]

>  <answer.label>
condition not met

$$$$
>  <biosequence>
UGAUUUAACUGAAGGAGCGGCAAUUGAUAAGGAAAUAUAGUGAUGUUAUAUAAGAGAGAGAGCCAGGUAGGUCGCAGAGGGAGGA [ExArgB.H]

>  <answer.label>
condition not met

$$$$
>  <biosequence>
UACAUAUUAUUAUUUCUACAUUUAUUUAGUCAGGAUAUCGAUUAAACGAGAAGGGACAAUAUCAAGUGAUGUUUGAUAAUUCAAA [JR_SSFMNA_Sub022]

>  <answer.label>
condition not met

$$$$
>  <biosequence>
CUGAGCCUGACGAAAGUCAGGCUCUGCGAGCGAGGACCGGUACGGCCGCCACUCGGUGCAGUGAUGUUGCAUGGCCGCAAGGCCG [#2 Exclusion - Tryptophan A Attempt #18 (HarryS)]

>  <answer.label>
condition met

$$$$
>  <biosequence>
GUUACGCAUGGAAGGAGCGCUCUCAGGCUUAAUAACACAGUGAUGUUGUGAAUUUGCCUAAAGCAGGUAGGUCGCCAUGUGUAAC [Ex Arginine B K4 9]

>  <answer.label>
condition met

$$$$
>  <biosequence>
CGCAGUGAUGUUGCUUAUAUUCUUGGUUAACGAGGACCGGUACGGCCGCCACUCGAUUUCUAUCUAUUCCAGUGUUAAUUUGAGU [JR_ExcTryptoA_Sub005]

>  <answer.label>
condition met

$$$$
>  <biosequence>
GCCGUACGCAUGGAUACCAGCAGAACUGCCCUCCCAGUGAUGUUGGGAGGAUCUUUCCUAUGCCCUUGGCAGCCAUGCGUACGGC

>  <answer.label>
condition not met

$$$$
>  <biosequence>
CCUAUCUCAUACGAUACCAGUGAAAUAAUAUUUAUAAGCAGUGAUGUUGCAUUCCAAGAACACCCUUGGCAGCGUAUGGGAUAGG [Ex Theophylline B K4 19]

>  <answer.label>
condition not met

$$$$
>  <biosequence>
UAUAUAUGAUGUGAUACCAGUGAAAAGCCAGUGAUGUUGGAGGAGCUGGUAUAUAAAUAAGACCCUUGGCAGCACAAUCACGUAU [#01 K4 Theophylline B Exclusion]

>  <answer.label>
condition met

$$$$
>  <biosequence>
UGUGUUUACCUGACUCAGUGAUGUUGAGAAGGAGCGUGCUAAGGCACAGGUAGGUCGCUCAACCUAAAUUCAGGUGAGCACUAAA

>  <answer.label>
condition met

$$$$
>  <biosequence>
UUUUAUUAGUAGUGAUGUUACUAAACUGAAGGAGCGAGAUUUAACUCAGGUAGGUCGCAGAAAAUCAAUUAAUUUAUAAAUUAAA [JR_SSArginiA_Sub011]

>  <answer.label>
condition not met

$$$$
>  <biosequence>
GCUAUGGUAGGAAGGAGCGCUUAUUUAUUUUUACGAGUGAUGUUCGGUAGUAGAUAGUUAAAGCAGGUAGGUCGCCUACUAUAGC [Arginine B K4 16]

>  <answer.label>
condition not met

$$$$
>  <biosequence>
GGAUCUGCCAGUGAUGUUGGUUAAUAUAUCAAGGAUAUGACGAAAGUCAGAAGGUGAAAGACUGGACAAAGUCCAGUCGGAUCCA [KL-SSFMN-A20]

>  <answer.label>
condition met

$$$$
